experiment: Maximum tolerated dose in mice
assay_conditions: mouse, in vivo, ip

>  <molecule>
Cc1cc(=O)[nH]c2c1C(=O)c1c(C)cc(=O)n(C)c1C2=O [DNQ, Deoxynyboquinone, reference compound]

>  <MTD at 5 days [mg/kg]>
5

$$$$

###

experiment: Aqueous solubility in pH 7.4 PBS by LC-MS
Assay type: physicochemical
assay_conditions: phosphate buffered saline, pH 7.4, aqueous buffer, thermodynamic from solid, PBS pH 7.4; Table 4.3
endpoint: solubility at 30 min

>  <compound>
CCCCn1c2c(c(C)cc1=O)C(=O)c1c(CCC)cc(=O)[nH]c1C2=O

>  <endpoint>
solubility at 30 min

>  <measurement>
< 5 µM

$$$$
>  <compound>
Cc1cc(=O)[nH]c2c1C(=O)c1c(C)cc(=O)n(CC(C)(C)C)c1C2=O

>  <endpoint>
solubility at 30 min

>  <measurement>
24 µM

$$$$
>  <compound>
Cc1cc(=O)[nH]c2c1C(=O)c1c(C)cc(=O)n(C3CCCCCCC3)c1C2=O

>  <endpoint>
solubility at 30 min

>  <measurement>
24 µM

$$$$
>  <compound>
CCCCCCCn1c2c(c(C)cc1=O)C(=O)c1c(C)cc(=O)[nH]c1C2=O

>  <endpoint>
solubility at 30 min

>  <measurement>
< 5 µM

$$$$
>  <compound>
CCCCn1c2c(c(CCC)cc1=O)C(=O)c1c(CCC)cc(=O)[nH]c1C2=O

>  <endpoint>
solubility at 30 min

>  <measurement>
< 5 µM

$$$$
>  <compound>
CCc1cc(=O)n(C)c2c1C(=O)c1c(C)cc(=O)[nH]c1C2=O

>  <endpoint>
solubility at 30 min

>  <measurement>
439 µM

$$$$
>  <compound>
Cc1cc(=O)[nH]c2c1C(=O)c1c(C)cc(=O)n(C)c1C2=O [DNQ, Deoxynyboquinone, reference compound]

>  <endpoint>
solubility at 30 min

>  <measurement>
115 µM

$$$$
>  <compound>
CCCCn1c2c(c(C)cc1=O)C(=O)c1c(C)cc(=O)[nH]c1C2=O

>  <endpoint>
solubility at 30 min

>  <measurement>
17 µM

$$$$

###

System: MCF-7 cells
experiment: Cytotoxicity to MCF-7 cells with or without 25 μM dicoumarol (sulforhodamine B assay)
Assay type: cell-based, human
assay_conditions: Homo sapiens, MCF7, read-out: IC50 vs. MCF-7 cells +25 μM DIC, Table 4.1; +25 μM DIC; ± s.e.

>  <molecule>
CCCc1cc(=O)[nH]c2c1C(=O)c1c(C)cc(=O)n(C)c1C2=O

>  <IC50 (nM)>
5300

$$$$
>  <molecule>
CCn1c2c(c(C)cc1=O)C(=O)c1c(C)cc(=O)[nH]c1C2=O

>  <IC50 (nM)>
3400

$$$$
>  <molecule>
CCc1cc(=O)n(C)c2c1C(=O)c1c(C)cc(=O)[nH]c1C2=O

>  <IC50 (nM)>
1300

$$$$
>  <molecule>
CCCc1cc(=O)n(C)c2c1C(=O)c1c(C)cc(=O)[nH]c1C2=O

>  <IC50 (nM)>
2600

$$$$
>  <molecule>
CCCn1c2c(c(C)cc1=O)C(=O)c1c(C)cc(=O)[nH]c1C2=O

>  <IC50 (nM)>
1300

$$$$
>  <molecule>
CCc1cc(=O)[nH]c2c1C(=O)c1c(C)cc(=O)n(C)c1C2=O

>  <IC50 (nM)>
4900

$$$$
>  <molecule>
Cc1cc(=O)[nH]c2c1C(=O)c1c(C)cc(=O)n(C)c1C2=O [DNQ, Deoxynyboquinone, reference compound]

>  <IC50 (nM)>
1700

$$$$

Ref: patent US10285986B2
